- Test system: Human Epithelial Breast Cancer Cells (MCF-7)
- Assay Procedure: Antiproliferative effect, 3H-thymidine incorporation in MCF-7 cells with and without estrogen
- Assay type: cell-based
- Condition Notes: Table 2; test chemical 50 ug/ml alone; 24 hours treatment
Measured Quantity: 3H-thymidine incorporation dpm/μg protein (dpm/μg protein)

[
  {
    "Compound": "COc1ccccc1O",
    "Measured Result": 712.3
  },
  {
    "Compound": "CC1=CC[C@H](C(C)C)C=C1",
    "Measured Result": 348.4
  },
  {
    "Compound": "CC1=CCC(C(C)(C)O)CC1 (stereo not shown)",
    "Measured Result": 490.7
  },
  {
    "Compound": "C=C(C)[C@H]1CC=C(C)CC1 [R-(+)-Limonene]",
    "Measured Result": 393.1
  }
]

Cited source for all entries: patent US6812258B2
